Recorded Fold change for the following binders
# assay_system: T1, human LAP-TGFB1 Fc fusion (human)
# T1 construct: also called human LAP-TGFβ1-Fc; human LAP-TGFβ-Fc isoform 1
# T1 sequence (chain, as listed by the source limits assumed): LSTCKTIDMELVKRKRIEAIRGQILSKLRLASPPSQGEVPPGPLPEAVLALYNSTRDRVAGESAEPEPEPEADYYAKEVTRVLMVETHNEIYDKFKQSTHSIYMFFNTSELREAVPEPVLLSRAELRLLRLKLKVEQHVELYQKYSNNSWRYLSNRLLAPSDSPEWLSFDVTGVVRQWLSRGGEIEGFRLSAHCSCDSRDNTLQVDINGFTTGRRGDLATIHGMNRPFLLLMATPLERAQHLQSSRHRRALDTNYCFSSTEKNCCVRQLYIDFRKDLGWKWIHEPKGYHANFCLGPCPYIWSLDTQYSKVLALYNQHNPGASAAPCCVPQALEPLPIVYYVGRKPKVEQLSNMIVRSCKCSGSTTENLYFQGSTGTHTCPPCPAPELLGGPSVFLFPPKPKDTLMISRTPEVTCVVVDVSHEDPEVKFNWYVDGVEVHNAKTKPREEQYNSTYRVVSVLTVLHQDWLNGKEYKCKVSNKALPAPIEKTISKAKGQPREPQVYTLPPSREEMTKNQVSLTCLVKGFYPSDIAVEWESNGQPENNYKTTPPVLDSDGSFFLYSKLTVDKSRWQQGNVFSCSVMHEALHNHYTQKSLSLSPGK
# assay_notes: BLI off-rate screen
Please answer in the form of a number followed by its unit of measurement.

Solved entries (count: 3):
VL L54Y (51BIT) (Fab, V domains shown) VH: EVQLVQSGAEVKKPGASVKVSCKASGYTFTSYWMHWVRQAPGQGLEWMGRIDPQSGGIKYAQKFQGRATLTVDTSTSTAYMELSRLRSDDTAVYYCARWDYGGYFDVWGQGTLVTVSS VL: DIQMTQSPSSLSASVGDRVTITCRASQDITNYLNWYQQKPGKAVKLLIYYTSRYHSGVPSRFSGSGSGTDYTLTISSLQPEDFATYFCQQGDTLPWTFGQGTKLEIKR : 1 fold
VH I57Y (83BIT) (Fab, V domains shown) VH: EVQLVQSGAEVKKPGASVKVSCKASGYTFTSYWMHWVRQAPGQGLEWMGRIDPQSGGYKYAQKFQGRATLTVDTSTSTAYMELSRLRSDDTAVYYCARWDYGGYFDVWGQGTLVTVSS VL: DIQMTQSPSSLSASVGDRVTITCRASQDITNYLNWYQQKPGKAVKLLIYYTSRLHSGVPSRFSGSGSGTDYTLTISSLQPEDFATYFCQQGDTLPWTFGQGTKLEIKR : 1 fold
VH M34Y (72BIT) (Fab, V domains shown) VH: EVQLVQSGAEVKKPGASVKVSCKASGYTFTSYWYHWVRQAPGQGLEWMGRIDPQSGGIKYAQKFQGRATLTVDTSTSTAYMELSRLRSDDTAVYYCARWDYGGYFDVWGQGTLVTVSS VL: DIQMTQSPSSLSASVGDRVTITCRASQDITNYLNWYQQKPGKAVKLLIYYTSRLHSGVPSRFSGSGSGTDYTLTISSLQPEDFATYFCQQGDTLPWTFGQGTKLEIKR : 1 fold

Input line: Which measured Fold change value corresponds to VL L94Y (59BIT) (Fab, V domains shown) VH: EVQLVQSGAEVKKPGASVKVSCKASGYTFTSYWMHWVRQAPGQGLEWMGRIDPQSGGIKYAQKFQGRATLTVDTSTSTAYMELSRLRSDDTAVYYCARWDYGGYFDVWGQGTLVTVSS VL: DIQMTQSPSSLSASVGDRVTITCRASQDITNYLNWYQQKPGKAVKLLIYYTSRLHSGVPSRFSGSGSGTDYTLTISSLQPEDFATYFCQQGDTYPWTFGQGTKLEIKR ?
Output line: 0.7 fold

Input line: Which measured Fold change value corresponds to VL R24Y (38BIT) (Fab, V domains shown) VH: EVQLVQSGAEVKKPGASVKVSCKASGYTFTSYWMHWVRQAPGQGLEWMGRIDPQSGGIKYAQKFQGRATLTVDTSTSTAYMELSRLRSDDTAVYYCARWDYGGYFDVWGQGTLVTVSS VL: DIQMTQSPSSLSASVGDRVTITCYASQDITNYLNWYQQKPGKAVKLLIYYTSRLHSGVPSRFSGSGSGTDYTLTISSLQPEDFATYFCQQGDTLPWTFGQGTKLEIKR ?
Output line: 1.6 fold
